Origin of measurements: paper PMC13541613

Molecular target: ZNF721 DBD1 (Homo sapiens, UniProt Q8TF20-2 29-461)
Sequence (Q8TF20 17-449): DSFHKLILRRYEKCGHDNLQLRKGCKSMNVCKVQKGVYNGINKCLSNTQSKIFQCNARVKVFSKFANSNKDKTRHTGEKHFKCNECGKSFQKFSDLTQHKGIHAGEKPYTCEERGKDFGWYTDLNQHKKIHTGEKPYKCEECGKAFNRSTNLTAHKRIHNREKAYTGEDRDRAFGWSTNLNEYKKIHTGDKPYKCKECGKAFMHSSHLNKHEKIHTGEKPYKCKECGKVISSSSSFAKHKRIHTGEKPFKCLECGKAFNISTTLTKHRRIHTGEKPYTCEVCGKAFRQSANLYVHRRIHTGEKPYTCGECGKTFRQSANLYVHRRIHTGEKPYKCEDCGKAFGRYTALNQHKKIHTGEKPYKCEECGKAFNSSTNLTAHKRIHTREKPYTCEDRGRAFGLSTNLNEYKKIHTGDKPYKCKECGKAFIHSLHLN
Test: HT-SELEX; 20 mM HEPES pH 7, 140 mM KCl, 5 mM NaCl, 1 mM K2HPO4, 2 mM MgSO4, 100 uM EGTA, ZnSO4, 0.1% Tween20; room temperature, 1 h; high values mean tight binding
Details: protein: ivt; tags: eGFP (N-terminal); dsDNA, one strand shown
Values of binding signal strictly less than 0.006 relative 10-mer count map to 1, and values of at least 0.006 relative 10-mer count map to 0.

Find out if reported binding signal for CCCACGACCC is less than 0.006 relative 10-mer count
1

Given the entry GGGGGGGGGA , would its reported binding signal be below 0.006 relative 10-mer count?
1

Does CCCGCCCCAC have binding signal strictly under 0.006 relative 10-mer count?
0

Please state whether binding signal is below 0.006 relative 10-mer count for CCCCGCCCAC
0

Please let me know if AAAAAAAGCA shows binding signal below 0.006 relative 10-mer count.
0

Strictly below 0.006 relative 10-mer count in binding signal? CCATCCCACC
0

Below 0.006 relative 10-mer count on binding signal? Entry CCCCACCGCC
0

Strictly below 0.006 relative 10-mer count in binding signal? CCAGCCCCCC
1

Decide: binding signal of CCCTCCCGCC strictly below 0.006 relative 10-mer count?
0

Would you kindly verify if binding signal of CACCGCCCAC is strictly less than 0.006 relative 10-mer count?
1

Say whether its binding signal is strictly beneath 0.006 relative 10-mer count. Entry: AAGCAGCATA
1

A record lists ACCCCCACAC . Is its binding signal below 0.006 relative 10-mer count?
1

# TODO verify binding signal < 0.006 relative 10-mer count strictly for this sequence: GAAAAAAAGC
0

Given ACCCTCCCAC , is recorded binding signal strictly lower than 0.006 relative 10-mer count?
0

In plain terms, does CCCAGCCCCC come in under 0.006 relative 10-mer count for binding signal?
1

I'd appreciate it if you could check whether CGCCCCCCGC has binding signal smaller than 0.006 relative 10-mer count.
1

Consider the sequence CACCCACCCG . Is its binding signal strictly less than 0.006 relative 10-mer count?
1

Could you please tell me whether binding signal recorded for CCCACCACGC is less than 0.006 relative 10-mer count?
1
